Assay summary: in vitro
Applied conditions: human, CC50 nM in MT-4
Labelling field: enter Yes if recorded CC50 at 5 days is less than 9000 nM. Enter No if it equals or exceeds that cut-off.

Solved entries:
C[C@H]1C[C@@H]2C[C@H]1O[C@H]1Cn3cc(C(=O)NCc4ccc(F)cc4F)c(=O)c(O)c3C(=O)N21 | No
O=C(NCc1ccc(F)cc1F)c1cn2c(c(O)c1=O)C(=O)N1[C@@H]3CC[C@@H](C3)O[C@H]1C2 [Compound 3] | No
O=C(NC1(c2ccc(F)cc2F)CCC1)c1cn2c(c(O)c1=O)C(=O)N1C(C2)O[C@H]2CC[C@@H]1C2 (stereo partly shown) | Yes
C[C@H]1C[C@@H]2C[C@H]1N1C(=O)c3c(O)c(=O)c(C(=O)NCc4c(F)cc(F)cc4F)cn3C[C@H]21 | No
O=C(NCc1c(F)cc(F)cc1Cl)c1cn2c(c(O)c1=O)C(=O)N1[C@H]3CC[C@H](C3)[C@@H]1C2 | Yes
O=C(NCc1cccc(Cl)c1F)c1cn2c(c(O)c1=O)C(=O)N1[C@H]3CC[C@H](C3)O[C@@H]1C2 | Yes
O=C(NCc1ccc(F)c(F)c1)c1cn2c(c(O)c1=O)C(=O)N1[C@H]3CC[C@H](C3)[C@@H]1C2 | No
O=C(NC1(c2ccc(F)cc2F)CC1)c1cn2c(c(O)c1=O)C(=O)N1C(C2)O[C@@H]2CCC[C@H]1C2 (stereo partly shown) | No

Ask: Threshold test, CC50 at 5 days < 9000 nM: O=C(NCc1c(Cl)ccc(Cl)c1F)c1cn2c(c(O)c1=O)C(=O)N1[C@H]3CC[C@H](C3)[C@@H]1C2
Result: Yes

Ask: Same question, O=C(NCc1ccc(F)cc1F)c1cn2c(c(O)c1=O)C(=O)N1C(C2)[N@@]2CCC[C@@H]1C2 (stereo partly shown) this time
Result: No

Ask: Same question, C[C@H]1C[C@@H]2C[C@H]1N1C(=O)c3c(O)c(=O)c(C(=O)NCc4c(F)cc(F)cc4F)cn3C[C@@H]21 this time
Result: Yes

Ask: Same question, O=C(NCc1ccc(F)cc1Cl)c1cn2c(c(O)c1=O)C(=O)N1[C@H]3CC[C@H](C3)[C@@H]1C2 this time
Result: Yes

Ask: Same question, O=C(NCc1c(F)cc(F)cc1F)c1cn2c(c(O)c1=O)C(=O)N1[C@@H]3C[C@H]([C@@H]1C2)C(F)(F)C3 this time
Result: No

###

Assay summary: in vitro
Applied conditions: human, CC50 nM in MT-4
Experimental: For the antiviral assay utilizing MT4 cells, 0.4 μL of […] test concentration of 3-fold serially diluted compound in DMSO was added to 40 μL of cell growth medium (RPMI 1640, 10% FBS, 1% penicilline/Streptomycine, 1% L-Glutamine, 1% HEPES) in each well of 384-well assay plates (10 concentrations) in quidruplicate. […]
// reported CC50 at 5 days per item
Numeric only. Scale: nM

O=C(NCc1cc(F)ccc1F)c1cn2c(c(O)c1=O)C(=O)N1[C@H]3CC[C@H](C3)O[C@@H]1C2 | 4630
O=C(NC1(c2ccc(F)cc2F)CC1)c1cn2c(c(O)c1=O)C(=O)N1C(C2)O[C@H]2CCC[C@@H]1C2 (stereo partly shown) | 18700
O=C(NCc1cccc(C(F)(F)F)c1F)c1cn2c(c(O)c1=O)C(=O)N1[C@H]3CC[C@H](C3)[C@@H]1C2 | 4340
O=C(NCc1c(F)cc(F)cc1F)c1cn2c(c(O)c1=O)C(=O)N1[C@H]3CC[C@H](C3)[C@H]1C2 | 11100
C[C@@H](NC(=O)c1cn2c(c(O)c1=O)C(=O)N1[C@H]3CC[C@H](C3)O[C@@H]1C2)c1ccc(F)cc1 | 3670

Ask: Could you tell me which CC50 at 5 days is on file for O=C(NCc1c(F)cc(F)cc1F)c1cn2c(c(O)c1=O)C(=O)N1[C@@H]3C[C@@H](C[C@H]3F)[C@@H]1C2 ?
Result: 30400

Ask: Same question, O=C(NCc1ccccc1F)c1cn2c(c(O)c1=O)C(=O)N1[C@@H]3CC[C@@H](C3)O[C@H]1C2 this time
Result: 13400

Ask: Same question, O=C(NCc1ccc(Cl)cc1F)c1cn2c(c(O)c1=O)C(=O)N1[C@H]3CC[C@H](C3)[C@@H]1C2 this time
Result: 4550

Ask: Same question, O=C(NC1(c2ccc(F)cc2F)CCOCC1)c1cn2c(c(O)c1=O)C(=O)N1C(C2)O[C@H]2CC[C@@H]1C2 (stereo partly shown) this time
Result: 15500

Ask: Same question, O=C(NCc1ncccc1C(F)(F)F)c1cn2c(c(O)c1=O)C(=O)N1[C@@H]3CC[C@@H](C3)O[C@H]1C2 this time
Result: 52200

Ask: Same question, O=C(NCc1ccc(F)cc1)c1cn2c(c(O)c1=O)C(=O)N1[C@@H]3CC[C@@H](C3)O[C@H]1C2 this time
Result: 16300

Ask: Same question, O=C(NCc1ccc(F)cc1F)c1cn2c(c(O)c1=O)C(=O)N1C(C2)[N@]2CCC[C@H]1C2 (stereo partly shown) this time
Result: 38700

Ask: Same question, O=C(NC1(c2ccc(F)cc2F)CCCC1)c1cn2c(c(O)c1=O)C(=O)N1C(C2)O[C@H]2CC[C@@H]1C2 (stereo partly shown) this time
Result: 3970

###

Tested on: PXR (Homo sapiens (Human), UniProt O75469)
Sequence (O75469 whole entry): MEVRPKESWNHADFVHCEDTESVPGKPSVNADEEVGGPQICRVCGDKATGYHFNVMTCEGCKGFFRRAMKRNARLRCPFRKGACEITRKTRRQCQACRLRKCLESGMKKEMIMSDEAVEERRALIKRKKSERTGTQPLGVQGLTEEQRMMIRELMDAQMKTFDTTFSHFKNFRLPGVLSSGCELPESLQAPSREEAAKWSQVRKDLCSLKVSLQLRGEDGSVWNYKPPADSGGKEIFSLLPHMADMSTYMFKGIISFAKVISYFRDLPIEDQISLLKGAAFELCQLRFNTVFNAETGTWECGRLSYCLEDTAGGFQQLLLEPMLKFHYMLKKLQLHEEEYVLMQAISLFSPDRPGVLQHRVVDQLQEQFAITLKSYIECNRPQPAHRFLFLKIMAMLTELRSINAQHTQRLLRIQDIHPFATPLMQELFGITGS
Assay summary: Human PXR activation assay (luciferase reporter gene assay, DPX2 cells)
Type: cell-based
Applied conditions: human
Metric name: Emax at 24 h, 15 µM (%)
Numeric only. Scale: %

Consider the reported Emax at 24 h, 15 µM for these compounds:
O=C(NCc1c(F)cc(F)cc1F)c1cn2c(c(O)c1=O)C(=O)N1[C@@H]3C[C@@H](C(F)C3F)[C@@H]1C2 (stereo partly shown) | 0
O=C(NC1(c2ccc(F)cc2F)CC1)c1cn2c(c(O)c1=O)C(=O)N1C(C2)O[C@H]2CCC[C@@H]1C2 (stereo partly shown) | 6
O=C(NCc1ccc(F)cc1F)c1cn2c(c(O)c1=O)C(=O)N1C(C2)O[C@@H]2CCC[C@H]1C2 (stereo partly shown) | 7
O=C(NCc1ccc(F)c(F)c1F)c1cn2c(c(O)c1=O)C(=O)N1[C@H]3CC[C@H](C3)[C@@H]1C2 | 3
O=C(NCc1ccc(F)c(Cl)c1)c1cn2c(c(O)c1=O)C(=O)N1[C@H]3CC[C@H](C3)[C@@H]1C2 | 0
O=C(NCc1c(F)ccc(Cl)c1F)c1cn2c(c(O)c1=O)C(=O)N1[C@H]3CC[C@H](C3)[C@@H]1C2 | 7

# ---- query compound ----
Ask: Could you tell me which Emax at 24 h, 15 µM is on file for O=C(NC1(c2ccc(F)cc2F)CCC1)c1cn2c(c(O)c1=O)C(=O)N1C(C2)O[C@H]2CC[C@@H]1C2 (stereo partly shown) ?
Result: 14

###

// reported MRT per item
Assay summary: Pharmacokinetic analysis following intravenous administration to beagle dogs
Format: in vivo
Applied conditions: male, dog, plasma; beagle dogs, IV infusion over 30 min, 0.5 mg/kg; read-out: MRT
Experimental: Pharmacokinetic analysis was performed on various test compounds following intravenous or oral administration to beagle dogs. For pharmacokinetic analysis of intravenously administered compounds, the test compounds were formulated in 5% Ethanol, 55% PEG 300, and 40% water at 0.1 mg/mL for IV infusion. For pharmacokinetic analysis of orally administered compounds, the test compounds were formulated as an aqueous suspension in 0.1% Tween 20, 0.5% HPMC LV 100 in Di Water at 1 mg/kg. […]
Numeric only. Scale: h

O=C(NCc1ccc(F)cc1F)c1cn2c(c(O)c1=O)C(=O)N1[C@H]3CC[C@H](C3)[C@@H]1C2 | 7.4

Ask: Could you tell me which MRT is on file for O=C(NCc1c(F)cc(F)cc1F)c1cn2c(c(O)c1=O)C(=O)N1[C@H]3CC[C@H](C3)O[C@@H]1C2 ?
Result: 7.1

###

Assay summary: Pharmacokinetic analysis following intravenous administration to beagle dogs
Assay type: in vivo
Applied conditions: male, beagle, dog, in vivo, iv, 0.5 mg/kg
// reported clearance per item
Numeric only. Scale: mL/min/kg

Consider the reported clearance for these compounds:
O=C(NCc1ccc(F)cc1F)c1cn2c(c(O)c1=O)C(=O)N1[C@H]3CC[C@H](C3)O[C@@H]1C2 | 0.5
O=C(NCc1c(F)cc(F)cc1F)c1cn2c(c(O)c1=O)C(=O)N1[C@@H](C2)[C@H]2C[C@@H]1C(F)(F)C2 | 0.783

Ask: Could you tell me which clearance is on file for C[C@@H](NC(=O)c1cn2c(c(O)c1=O)C(=O)N1[C@H]3CC[C@H](C3)[C@@H]1C2)c1c(F)cc(F)cc1F ?
Result: 5
